assay: blockers of mitochondrial fusion, WT vs mutant – cell-based, chemical genetic, wild-type and mutant, confirmation (AID 1361); conditions: Cell-based mitochondrial fusion phenotype, imaging, WT cells
The source made the active and inactive calls. How the calls were made is not given here.
Respond only with the outcome that fits, drawn from yes (1) (active), no (0) (inactive)

Study these solved cases before continuing.
- O=C(N=C1SCC(=O)N1c1ccccc1Cl)c1ccccc1: no (0)
- O=C1Nc2ccc(Cl)cc2C12Nc1ccccc1-c1nnc(SCc3ccccc3F)nc1O2 (configuration not stated): no (0)
- CCc1ccc(CCC(=O)Nc2ccccc2C(=O)O)o1: no (0)
- CCOc1ccc(NC(=S)NN(C)C(=S)Nc2ccc(OCC)cc2)cc1: no (0)
- Cc1ccc(C(=O)Nc2cc(Cl)ccc2N2CCCCC2)s1: yes (1)
- O=C(/C=C/Nc1cccc(C(F)(F)F)c1)C(F)(F)F: no (0)
- CCOc1cccc(Oc2ncccc2C(=O)/C(C#N)=C/N(C)C)c1: no (0)
- CCC1Oc2ccc(C)cc2N(CC(=O)NCCCN2CCCCC2CC)C1=O (configuration not stated): no (0)
- Cc1[nH][nH]c(=O)c1C(c1c(C)[nH][nH]c1=O)c1cn(Cc2ccccc2Cl)c2ccccc12: no (0)
- Cc1cc(N=Cc2cc(Cl)ccc2O)no1: no (0)

[in] // return assay outcome for COc1ccc(-c2cn[nH]c2-c2ccc(OCc3ccc([N+](=O)[O-])cc3)cc2O)cc1
[out] yes (1)

[in] Recorded call for CC12CCC3C(CC=C4CC(O)CCC43C)C1C/C(=C\c1ccccc1F)C2=O (configuration not stated) ?
[out] yes (1)

[in] Recorded test call requested for O=C(NCc1ccccc1Cl)c1cnccn1
[out] no (0)

[in] Fill in: this test's call for CCCC/C(C)=C/[C@@H](NP(=O)(c1ccccc1)c1ccccc1)c1ccccc1 is ___
[out] yes (1)

[in] Can you look up the reported call for COc1ccc(C2=NN(C(=O)c3cccs3)C(c3ccccc3O)C2)cc1 (configuration not stated) for me?
[out] yes (1)

[in] Could you kindly confirm the outcome this assay logged for O=C(CCC1N=C2c3ccccc3N=C(SCc3cccc(Cl)c3)N2C1=O)NCc1ccco1 (configuration not stated) ?
[out] no (0)

[in] Short answer needed: outcome of this test for Cc1[nH][nH]c(=O)c1C(c1c(C)[nH][nH]c1=O)c1cn(Cc2ccc(Cl)c(Cl)c2)c2ccccc12 ?
[out] yes (1)

[in] Call for entry CC(C)(C)n1nnnc1C(c1cccnc1)N(Cc1ccccc1)Cc1cccs1 (configuration not stated) :
[out] yes (1)

The measured values listed here are drawn from PubChem BioAssay AID1361.
